# Tested on: ATCC19606 strain (Acinetobacter baumannii)
# experiment notes: Checkerboard antibacterial synergistic activity test with polymyxin E (FIC)
# Format: cell-based
# Design: key: FIC≤0.5 synergy; 0.5–1 additive; 1–2 indifferent; ≥2 antagonism
# particulars: combined with polymyxin E
quantity kind: Synergistic activity (FIC value) ATCC19606

> print(dat)
                                    molecule  observed
 1  NC(N)=Nc1nc(-c2cc(C(F)(F)F)cc(C(F)(F)F)c2)cs1 [Compound I-44]      0.14
 2  NC(N)=Nc1nc(-c2ccc3c(c2)COc2c-3ccc3c2C(=O)CCC3)cs1 [Compound I-119]      1.25
 3  NC(N)=Nc1nc(-c2ccc(OS(N)(=O)=O)cc2)co1 [Compound I-29]      0.26
 4  Cc1ccc2c(-c3coc(N=C(N)N)n3)cccc2c1 [Compound I-59]      0.15
 5  NC(N)=Nc1nc(-c2cccc(Oc3ccccn3)c2)cs1 [Compound I-104]      0.25
 6  Cc1ccc(NC(=O)Nc2cccc(-c3c[nH]c(N=C4NCCCN4)n3)c2)c(C)c1 [Compound I-199]      0.16
 7  COc1ccc(Oc2cc(Br)cc(-c3csc(N=C4NCCCN4)n3)c2)c(OC)c1 [Compound I-159]      0.31
 8  CNS(=O)(=O)c1cc(-c2c[se]c(N=C3NCCCN3)n2)ccc1C [Compound I-171]      0.75
 9  NC(N)=Nc1nc(-c2cccc3cc(Cl)cc(Cl)c23)c(Br)s1 [Compound I-66]      0.13
10  Cc1oc(N=C2NCCCN2)nc1-c1cc(NS(C)(=O)=O)ccc1-c1ccco1 [Compound I-139]      0.75
11  Cc1cc(C)c2c(-c3csc(N=C(N)N)n3)cccc2c1 [Compound I-61]      0.75
12  Cc1ccc2cccc(-c3nc(N=C(N)N)oc3C)c2c1 [Compound I-58]      0.28
13  NC(N)=Nc1nc(-c2ccc(OCc3ccccc3)cc2)cs1 [Compound I-9]      0.13
14  Fc1ccc(-c2csc(N=C3NCCCN3)n2)c(Oc2ccc(Cl)cc2Cl)c1 [Compound I-151]      0.03
15  Cc1c(-c2coc(N=C3NCCCN3)n2)ccc(Cl)c1C#N [Compound I-169]      0.15
16  CN(C)c1ccc(-c2nc(N=C(N)N)[nH]c2Cl)c(-c2ccco2)c1 [Compound I-78]      0.75
17  NC(N)=Nc1nc(-c2cccc(N3CCOCC3)c2)cs1 [Compound I-120]      1.25
18  Cc1sc(N=C2NCCCN2)nc1-c1ccccc1Oc1ccccc1Cl [Compound I-145]      0.04

###

# Tested on: ATCC19606 strain (Acinetobacter baumannii)
# experiment notes: Checkerboard antibacterial synergistic activity test with polymyxin E (FIC)
# Type: cell-based
# Parameters: key: FIC≤0.5 synergy; 0.5–1 additive; 1–2 indifferent; ≥2 antagonism
# particulars: combined with polymyxin E
Each entry gets False if its Synergistic activity (FIC value) ATCC19606 stays under 0.3, and True if its Synergistic activity (FIC value) ATCC19606 is 0.3 or above.

> print(dat)
                                 mol.smiles  group.label
1      Cc1oc(N=C(N)N)nc1-c1cccc2ccc(Cl)cc12         True
2      NC(N)=Nc1nc(-c2ccccc2Oc2ccccc2Cl)cs1         True
3  Oc1cc(Oc2ccc(Cl)cc2Cl)cc(-c2csc(N=C3NCCCN3)n2)c1        False
4  COc1ccc(Oc2cccc(-c3c[nH]c(N=C(N)N)n3)c2)c(C)c1        False
5  NC(N)=Nc1nc(-c2ccccc2[N+](=O)[O-])c[nH]1         True
6  COc1ccc(Oc2ccccc2-c2nc(N=C3NCCCN3)sc2C)c(C)c1        False
7    CSc1cc2ccccn2c1-c1c[nH]c(N=C2NCCCN2)n1         True
8  CC(C)c1cc(-c2nc(N=C3NCCCN3)sc2Cl)cc(C(C)C)c1O        False
9      NC(N)=Nc1nc(-c2cccc(Oc3ccccc3)c2)cs1        False

###

# Tested on: ATCC19606 strain (Acinetobacter baumannii)
# experiment notes: Checkerboard antibacterial synergistic activity test with polymyxin E (FIC)
# Type: cell-based
# Set-up: key: FIC≤0.5 synergy; 0.5–1 additive; 1–2 indifferent; ≥2 antagonism
# particulars: combined with polymyxin E
In this section we review reported Synergistic activity (FIC value) ATCC19606 values for a set of molecules.
quantity kind: Synergistic activity (FIC value) ATCC19606

> print(dat)
                                 mol.smiles  observed
1  CC(C)(C)c1cc(-c2csc(N=C(N)N)n2)cc(C(C)(C)C)c1      0.15
2             NC(N)=Nc1nc(-c2cccc(Cl)c2)cs1      0.25
3  O=C(NC1CC1)c1ccc(-c2nccs2)c(-c2nc(N=C3NCCCN3)sc2Br)c1      0.51
4  Fc1cc(Oc2ccc(Cl)cc2Cl)cc(-c2csc(N=C3NCCCN3)n2)c1      0.31
5  Cc1sc(N=C(N)N)nc1-c1ccc(Cl)cc1Oc1ccc(Cl)cc1Cl      0.02
6  NC(N)=Nc1nc(-c2cc(C(F)(F)F)c(O)c(C(F)(F)F)c2)co1      0.13
7  CS(=O)(=O)c1ccc(Oc2ccccc2-c2nc(N=C(N)N)sc2Cl)cc1      1.25
8       CC(C)c1ccccc1-c1nc(N=C2NCCCN2)sc1Br      0.15
9    CC(C)(C)c1cccc(-c2c[se]c(N=C(N)N)n2)c1       0.3

###

# System: ATCC19606 strain (Acinetobacter baumannii)
# experiment notes: Checkerboard antibacterial synergistic activity test with polymyxin E (FIC)
# Type: cell-based
# Parameters: key: FIC≤0.5 synergy; 0.5–1 additive; 1–2 indifferent; ≥2 antagonism
# particulars: combined with polymyxin E
quantity kind: Synergistic activity (FIC value) ATCC19606

> print(dat)
                                   molecule  observed
1  COc1ccc(Oc2ccccc2-c2csc(N=C3NCCCN3)n2)c(OC)c1 [Compound I-149]      0.03
2  Fc1sc(N=C2NCCCN2)nc1-c1cc(Br)cc(Br)c1 [Compound I-177]       0.5
3  Clc1ccc(Oc2ccccc2)c(-c2coc(N=C3NCCCN3)n2)c1 [Compound I-134]      1.25
4  NC(N)=Nc1nc(-c2ccc3cccnc3c2)cs1 [Compound I-68]      0.51
5  NC(N)=Nc1nc(-c2c(S(N)(=O)=O)csc2Cl)cs1 [Compound I-118]      1.25
6  NC(N)=Nc1nc(-c2c(F)cccc2-c2nccs2)cs1 [Compound I-80]      0.52
7  CC(=O)N(C)c1cccc(-c2csc(N=C(N)N)n2)c1 [Compound I-30]      0.13
8  CCc1sc(N=C(N)N)nc1-c1ccccc1Oc1ccc(N2CCOCC2)cc1 [Compound I-102]      1.25
9  CS(=O)(=O)c1ccc(Oc2cccc(-c3csc(N=C(N)N)n3)c2)cc1 [Compound I-106]      1.25

###

# Tested on: ATCC19606 strain (Acinetobacter baumannii)
# experiment notes: Checkerboard antibacterial synergistic activity test with polymyxin E (FIC)
# Assay type: cell-based
# Parameters: key: FIC≤0.5 synergy; 0.5–1 additive; 1–2 indifferent; ≥2 antagonism
# particulars: combined with polymyxin E
quantity kind: Synergistic activity (FIC value) ATCC19606

> print(dat)
                                 mol.smiles  observed
1               COc1ccccc1-c1csc(N=C(N)N)n1      1.25
2  CC(C)=CCOc1cc(OCC=C(C)C)cc(-c2nc(N=C(N)N)[nH]c2C)c1      0.25
3      CC(C)=CCOc1cccc(-c2csc(N=C(N)N)n2)c1      0.75
4       CSc1cc2cc(C)ccn2c1-c1csc(N=C(N)N)n1      0.03
5     N#Cc1ccc(-c2csc(N=C3NCCCN3)n2)c(Br)c1      0.52
6         NC(N)=Nc1nc(-c2cc(Cl)cc(Cl)c2)cs1      0.75
7  CC(C)(C)c1cc(-c2csc(N=C(N)N)n2)cc(C(C)(C)C)c1O      0.13
8  NC(N)=Nc1nc(-c2cc(Cl)cc(Oc3ccc(Cl)cc3Cl)c2)cs1      0.03
9        NC(N)=Nc1nc(-c2ccccc2Oc2ccccc2)cs1      1.25

###

# System: ATCC19606 strain (Acinetobacter baumannii)
# experiment notes: Checkerboard antibacterial synergistic activity test with polymyxin E (FIC)
# Assay type: cell-based
# Parameters: key: FIC≤0.5 synergy; 0.5–1 additive; 1–2 indifferent; ≥2 antagonism
# particulars: combined with polymyxin E
Each entry gets no if its Synergistic activity (FIC value) ATCC19606 stays under 0.5, and yes if its Synergistic activity (FIC value) ATCC19606 is 0.5 or above.

> print(dat)
                                  mol.smiles  group.label
 1    NC(N)=Nc1nc(-c2cccc(Oc3ccccc3Cl)c2)cs1           no
 2  CSc1cc2cc(C)cc(C)n2c1-c1nc(N=C2NCCCN2)sc1C           no
 3      NC(N)=Nc1nc(-c2ccc(Oc3ccccc3)cc2)cs1          yes
 4  Cc1sc(N=C(N)N)nc1-c1cccc(S(C)(=O)=O)c1-c1ccccn1          yes
 5     Cc1ccc(O)c(-c2c[nH]c(N=C3NCCCN3)n2)c1           no
 6      NC(N)=Nc1nc(-c2cc(OCc3ccccc3)no2)cs1          yes
 7       Cc1cc(-c2csc(N=C3NCCCN3)n2)cc(C)c1O          yes
 8  Cc1sc(N=C2NCCCN2)nc1-c1cc(C(C)C)cc(C(C)C)c1           no
 9       NC(N)=Nc1nc(-c2ccccc2OCc2ccccc2)cs1           no
10  CCc1sc(N=C2NCCCN2)nc1-c1c(SC)cc2ccc(C)cn12          yes
11       Cc1ccccc1Oc1ccccc1-c1csc(N=C(N)N)n1           no
12          CNc1cc(C)cc(-c2csc(N=C(N)N)n2)c1          yes
13            CC(C)c1ccccc1-c1coc(N=C(N)N)n1          yes
14  NC(N)=Nc1nc(-c2cccc(Oc3ccc(I)cc3I)c2)cs1           no
15    CC(C)c1ccc(-c2c[nH]c(N=C3NCCCN3)n2)cc1          yes
16         NC(N)=Nc1nc(-c2cccc3ccsc23)c[nH]1          yes
